# Assay method text: Acute toxicity in male CF 1 mice
# Condition summary: mouse, in vivo, po
Measured quantity: LD50

State, in one line, measured LD50 of CC1C=CC=CC=CC=CC=CC=CC=CC(OC2OC(C)C(O)C(N)C2O)CC2OC(O)(CC(O)CC(O)CC(O)CC(O)CC(O)CC(O)CC(=O)OC1C(C)CCC(O)CC(=O)c1ccc(N)cc1)CC(O)C2C(=O)O (stereo not shown) [Antibiotic 67-121B] > 50 mg/kg

* * *

# Assay method text: pKa
# Condition summary: 66% aqueous dimethylformamide, pka (NH3^+), 66% aqueous dimethyl formamide
Measured quantity: pKa
When you answer, write just the number.

State, in one line, measured pKa of CNc1ccc(C(=O)CC(O)CCC(C)C2OC(=O)CC(O)CC(O)CC(O)CC(O)CC(O)CC(O)CC3(O)CC(O)C(C(=O)O)C(CC(OC4OC(C)C(O)C(N)C4O)C=CC=CC=CC=CC=CC=CC=CC2C)O3)cc1 (stereo not shown) [Antibiotic 67-121A] 9
